The reported numbers originate from patent US9145424B2.

# reported EC50; entries follow
- System: PC12 cells that express mutant G93A SOD1
- Assay details: Mutant SOD1-induced cytotoxicity protection assay
- Particulars: Rattus norvegicus, PC-12, read-out: EC50 after Normalization, normalised with the corresponding 3299 EC50
Give just the numeric value; nM need not be written.

Reference set (2 entries):
> print(dat)
                            smiles.str                                       tgt  measured.quantity  reported.measurement
1        CCc1ccccc1SCc1cc(=O)[nH][nH]1  PC12 cells that express mutant G93A SOD1               EC50                  2500
2  O=c1cc(CNc2cc(Cl)cc(Cl)c2)[nH][nH]1  PC12 cells that express mutant G93A SOD1               EC50                   330

Requested field: EC50. Item: "Cn1[nH]c(COc2ccc(Cl)cc2)cc1=O"
5850

###

- Test system: PC12 cells that express mutant G93A SOD1
- Assay details: Mutant SOD1-induced cytotoxicity protection assay
- Particulars: Rattus norvegicus, PC-12, read-out: Best EC50, PC12 G93A SOD1 cells, MG132, calcein-AM viability
// boundary case: EC50 equal to 2 µM maps to false (0); strictly smaller maps to true (1)

As a guide, the following entries are already answered.
> print(dat)
                                   molecule                                       tgt  label.class
1         Cn1c(COc2cc(Cl)cc(Cl)c2)cc(=O)n1C  PC12 cells that express mutant G93A SOD1    false (0)
2          O=C1NN=C(CSc2ccccc2)C1=Cc1ccccc1  PC12 cells that express mutant G93A SOD1    false (0)
3  Cc1cc([S+]([O-])Cc2cc(=O)[nH][nH]2)c(C)cc1Cl (stereo not drawn)  PC12 cells that express mutant G93A SOD1    false (0)

Hi there! Is EC50 for "CC(C)(C)c1ccc(SCc2cc(=O)[nH][nH]2)cc1" below 2 µM, do you know?
false (0)

Hi there! Is EC50 for "O=c1cc(CSc2ccc(Cl)cc2Cl)[nH][nH]1" below 2 µM, do you know?
true (1)

Hi there! Is EC50 for "O=c1cc(CSc2ccccc2Cl)[nH][nH]1" below 2 µM, do you know?
true (1)

Hi there! Is EC50 for O=c1cc(C[S+]([O-])c2ccc(Cl)cc2)[nH]n1-c1ccccc1 (stereo not drawn) below 2 µM, do you know?
false (0)

Hi there! Is EC50 for "O=c1cc(CNc2cc(Cl)cc(Cl)c2)[nH][nH]1" below 2 µM, do you know?
false (0)

Hi there! Is EC50 for "O=c1cc(CN(c2cc(Cl)cc(Cl)c2)S(=O)(=O)c2ccccc2)[nH][nH]1" below 2 µM, do you know?
false (0)

Hi there! Is EC50 for "Cn1[nH]c(COc2ccc(Cl)cc2)cc1=O" below 2 µM, do you know?
false (0)

Hi there! Is EC50 for "O=c1cc(CSc2ccccc2)[nH][nH]1" below 2 µM, do you know?
false (0)

###

- Test system: PC12 cells that express mutant G93A SOD1
- Assay details: Mutant SOD1-induced cytotoxicity protection assay
- Particulars: Rattus norvegicus, PC-12, read-out: Best EC50, PC12 G93A SOD1 cells, MG132, calcein-AM viability
# reported EC50; entries follow
Give just the numeric value; nM need not be written.

Reference set (3 entries):
> print(dat)
                            smiles.str  measured.quantity  reported.measurement
1     O=c1cc(CSc2ccc(F)cc2Cl)[nH][nH]1               EC50                  1610
2      O=c1cc(CSc2ccc(Br)cc2)[nH][nH]1               EC50                  4240
3  O=c1cc(CSc2ccc(Cl)c(Cl)c2)[nH][nH]1               EC50                  2600

# ---- query compound ----
Requested field: EC50. Item: "Cc1cc(S(=O)(=O)Cc2cc(=O)[nH][nH]2)c(C)cc1Cl"
2280
